protocol text: folding enthalpy; higher = less favourable; fluorescence melt of hairpins on a sequencing array, two-state fit
experimental parameters: sodium 0.088 M
# maps each entry to its folding enthalpy
Reply with just the number (in kcal/mol).

Example cases with answers are listed next.
CGTTCGGAAACGAACACG ((((((....)))..)))    -11.5
GCGTTCGGAAACGAACAC (.(((((....))))).)    -13.7
GTCGTCCCGAAAGGGGAC (((..(((....))))))    -11.7
GGGTGGGGAAACCCGCTC (.(.(((....))).).)    -17.7
GCACGTCGAAAGACATGC (((.(((....))).)))    -31.7
GTAACCGAAAGGTTCTAC ((((((....)))..)))    -11.3

Please fill in: folding enthalpy reported for GTGCAGGGAAACCCGCAC ((((.((....)).)))) = -42.2

Field folding enthalpy (entry GATCCTGTAGAGGATC ((((((....)))))) ) reads -36

# folding enthalpy of GTATGTGGAAACATGTAC (((..((....))..))) = -16.4

---

Recorded folding enthalpy, one value per entry.
protocol text: folding enthalpy; higher = less favourable; fluorescence melt of hairpins on a sequencing array, two-state fit
experimental parameters: sodium 0.088 M
Report the figure in kcal/mol without appending any unit label.

# count of solved cases: 5
GACCGCCGAAAGGCAGTC (((.(((....))).)))    -20.9
GAAATGGGAAACTATTTC (((((.(....).)))))    -23
GCGTACGAAAGTACCCGC ((((((....)))..)))    -14.2
GTAGTGGGAAACCACTAC (((((((....)))))))    -30.3
GGTACACGAAAGTGACC (((.(((....))))))    -18.4

We next turn to a different sequence, shown below.
Kindly note the recorded folding enthalpy for GCTCTTGGAAACAGGAGC ((((.((....)).)))) , which is -33.9

---

protocol text: folding enthalpy; higher = less favourable; fluorescence melt of hairpins on a sequencing array, two-state fit
experimental parameters: sodium 0.088 M
Measured folding enthalpy accompanies every entry in the list below.
Give the number; kcal/mol is assumed, so skip it.

Field: example entries. Status: answers known.
GGCGCAGGAAACTACGCC ((((.((....)).))))    -39
GATGCCGAAAGGCGGATC ((((((....)))..)))    -10.5
GAGACGGCGAAAGCCCTC (((..(((....))))))    -6.29
GATCGAGCTGTCGATC ((((((....))))))    -38.6
GGAGAGGGAAACTTCTCC (((((.(....).)))))    -26.8

Looking up GCCAGGCGAAAGCCGAGC ((..(((....)))..)) , I found its folding enthalpy recorded as -13.3

# folding enthalpy (sequence: GCCGGTCGAAAGACTGGC (((.(((....))).))) ) is -32

GGAAGAACGAAAGTTTCC (((..(((....)))))) yielded folding enthalpy of -14.9

---

protocol text: folding enthalpy; higher = less favourable; fluorescence melt of hairpins on a sequencing array, two-state fit
experimental parameters: sodium 0.088 M
I would appreciate it if you labelled entries 1 when folding enthalpy is -40 kcal/mol or higher, otherwise 0.

Observe how each entry below is paired with its result.
GATCGTCCGGACGATC ((((((....))))))    0
GATCATGGCGATGATC ((((((....))))))    0
GCTTGGCGAAAGCAGAGC (((..((....))..)))    1
GCAAGACCGAAAGGTTGC (((..(((....))))))    1

Tell me whether folding enthalpy is at least -40 kcal/mol here: GGCTGGACGAAAGTCGCC (((..(((....)))))) 1
